species on record: Rattus norvegicus; assay: Open TG-GATES - Regimen: Single; assay type: toxicity, organism-based, Sprague-Dawley; design: regimen Single, gender Male, age 6 weeks; conditions: in vivo, po, 10 mg/kg, 24 h, tissue Liver, route gavage, dose level Low
# LIVER per entry
# output: number + unit

Which LIVER value belongs to CC(C)OC(=O)C(C)(C)Oc1ccc(C(=O)c2ccc(Cl)cc2)cc1 [FENOFIBRATE] ?
9.2 g

Which LIVER value belongs to "CN(C)CCCN1c2ccccc2CCc2ccccc21" ?
9.7 g

Which LIVER value belongs to "CN(C)CCN(Cc1cccs1)c1ccccn1" ?
9.3 g

Which LIVER value belongs to "CC1=C(/C=C/C(C)=C/C=C/C(C)=C/CO)C(C)(C)CCC1" ?
9.8 g

* * *

organism: Rattus norvegicus; assay: Open TG-GATES - Regimen: Single; assay type: toxicity, organism-based, Sprague-Dawley; parameters: regimen Single, gender Male, age 6 weeks; details: in vivo, po, 10 mg/kg, 24 h, tissue Blood, route gavage, dose level Low
quantityMeasured: RBC (x10_4/ul)
Supply the numeric figure in x10_4/ul, leaving out any unit text.

Example entries and their recorded answers appear below.
{"columns": ["compound", "quantityMeasured", "unitSymbol", "quantitativeResult"],
 "data": [
  ["CC(C)OC(=O)C(C)(C)Oc1ccc(C(=O)c2ccc(Cl)cc2)cc1 [FENOFIBRATE]", "RBC", "x10_4/ul", 590.4],
  ["CC1=C(/C=C/C(C)=C/C=C/C(C)=C/CO)C(C)(C)CCC1 [RETINOL]", "RBC", "x10_4/ul", 618],
  ["CN(C)CCN(Cc1cccs1)c1ccccn1", "RBC", "x10_4/ul", 584]
]}

--- query ---
Which RBC value belongs to CN(C)CCCN1c2ccccc2CCc2ccccc21 [IMIPRAMINE] ?
625.4

* * *

species on record: Rattus norvegicus; assay: Open TG-GATES - Regimen: Daily Repeat; type: toxicity, organism-based, Sprague-Dawley; set-up: regimen Daily Repeat, gender Male, age 6 weeks; settings: in vivo, po, 0 mg/kg, […], tissue Plasma, route gavage, dose level Control, time 14 day
quantityMeasured: Na (meq/L)
Supply the numeric figure in meq/L, leaving out any unit text.

{"columns": ["compound", "unitSymbol", "quantitativeResult"],
 "data": [
  ["COc1ccc2[nH]c([S+]([O-])Cc3ncc(C)c(OC)c3C)nc2c1 (stereo not drawn)", "meq/L", 139.8],
  ["O=C(CCCN1CCC(O)(c2ccc(Cl)cc2)CC1)c1ccc(F)cc1", "meq/L", 138.2],
  ["CC1=C(/C=C/C(C)=C/C=C/C(C)=C/CO)C(C)(C)CCC1", "meq/L", 142],
  ["COC1=CC(=O)C[C@@H](C)[C@]12Oc1c(Cl)c(OC)cc(OC)c1C2=O", "meq/L", 139.8],
  ["CCOc1ccc(NC(=O)CC(C)O)cc1 (stereo not drawn)", "meq/L", 144.8],
  ["NNC(=O)c1ccncc1", "meq/L", 139.4],
  ["CN(C)CCN(Cc1cccs1)c1ccccn1", "meq/L", 142.4]
]}

--- query ---
Which Na value belongs to CCCNC(=O)NS(=O)(=O)c1ccc(Cl)cc1 [CHLORPROPAMIDE] ?
143.4

* * *

# MCH per entry
species: Rattus norvegicus; experiment: Open TG-GATES - Regimen: Daily Repeat; type: toxicity, organism-based, Sprague-Dawley; parameters: regimen Daily Repeat, gender Male, age 6 weeks; settings: in vivo, po, 300 mg/kg, […], tissue Blood, route gavage, dose level Middle, time 7 day
Supply the numeric figure in pg, leaving out any unit text.

Example entries and their recorded answers appear below.
{"columns": ["compound", "quantityMeasured", "quantitativeResult"],
 "data": [
  ["NC(N)=Nc1nc(CSCCC(N)=NS(N)(=O)=O)cs1", "MCH", 22.1],
  ["CCOc1ccc(NC(=O)CC(C)O)cc1 (stereo not given)", "MCH", 21.1],
  ["COC1=CC(=O)C[C@@H](C)[C@]12Oc1c(Cl)c(OC)cc(OC)c1C2=O", "MCH", 21.2],
  ["COc1ccc2[nH]c([S+]([O-])Cc3ncc(C)c(OC)c3C)nc2c1 (stereo not given)", "MCH", 20.6]
]}

--- query ---
Which MCH value belongs to CCOC(=O)CCC(=O)O[C@H]1[C@H](O[C@@H]2[C@@H](C)[C@H](O[C@H]3C[C@@](C)(OC)[C@@H](O)[C@H](C)O3)[C@@H](C)C(=O)O[C@H](CC)[C@@](C)(O)[C@H](O)[C@@H](C)C(=O)[C@H](C)C[C@@]2(C)O)O[C@H](C)C[C@@H]1N(C)C [ERYTHROMYCIN ETHYLSUCCINATE] ?
20.9

* * *

organism: Rattus norvegicus; assay: Open TG-GATES - Regimen: Single; format: toxicity, organism-based, Sprague-Dawley; design: regimen Single, gender Male, age 6 weeks; conditions: in vivo, po, 1000 mg/kg, 24 h, tissue Plasma, route gavage, dose level High
# BUN per entry
Supply the numeric figure in mg/dL, leaving out any unit text.

{"columns": ["compound", "BUN / mg/dL"],
 "data": [
  ["CC(C)OC(=O)C(C)(C)Oc1ccc(C(=O)c2ccc(Cl)cc2)cc1 [FENOFIBRATE]", 13.6]
]}

Which BUN value belongs to "NC(N)=Nc1nc(CSCCC(N)=NS(N)(=O)=O)cs1" ?
14.4

Which BUN value belongs to CCOC(=O)CCC(=O)O[C@H]1[C@H](O[C@@H]2[C@@H](C)[C@H](O[C@H]3C[C@@](C)(OC)[C@@H](O)[C@H](C)O3)[C@@H](C)C(=O)O[C@H](CC)[C@@](C)(O)[C@H](O)[C@@H](C)C(=O)[C@H](C)C[C@@]2(C)O)O[C@H](C)C[C@@H]1N(C)C [ERYTHROMYCIN ETHYLSUCCINATE] ?
16.8

Which BUN value belongs to COc1ccc2[nH]c([S+]([O-])Cc3ncc(C)c(OC)c3C)nc2c1 (stereo not given) ?
11.2

Which BUN value belongs to "COC1=CC(=O)C[C@@H](C)[C@]12Oc1c(Cl)c(OC)cc(OC)c1C2=O" ?
13.2

* * *

organism: Rattus norvegicus; assay: Open TG-GATES - Regimen: Single; assay type: toxicity, organism-based, Sprague-Dawley; parameters: regimen Single, gender Male, age 6 weeks; details: in vivo, po, 300 mg/kg, 24 h, tissue Plasma, route gavage, dose level Middle
# AST per entry
Supply the numeric figure in IU/L, leaving out any unit text.

Example entries and their recorded answers appear below.
{"columns": ["molecule", "quantitativeResult"],
 "data": [
  ["COc1ccc2[nH]c([S+]([O-])Cc3ncc(C)c(OC)c3C)nc2c1 (centres undefined) [OMEPRAZOLE]", 65.8],
  ["NC(N)=Nc1nc(CSCCC(N)=NS(N)(=O)=O)cs1 [FAMOTIDINE]", 62.8],
  ["COC1=CC(=O)C[C@@H](C)[C@]12Oc1c(Cl)c(OC)cc(OC)c1C2=O [GRISEOFULVIN]", 64.8]
]}

--- query ---
Which AST value belongs to CCOC(=O)CCC(=O)O[C@H]1[C@H](O[C@@H]2[C@@H](C)[C@H](O[C@H]3C[C@@](C)(OC)[C@@H](O)[C@H](C)O3)[C@@H](C)C(=O)O[C@H](CC)[C@@](C)(O)[C@H](O)[C@@H](C)C(=O)[C@H](C)C[C@@]2(C)O)O[C@H](C)C[C@@H]1N(C)C [ERYTHROMYCIN ETHYLSUCCINATE] ?
69.6

* * *

organism: Rattus norvegicus; assay: Open TG-GATES - Regimen: Single; format: toxicity, organism-based, Sprague-Dawley; parameters: regimen Single, gender Male, age 6 weeks; conditions: in vivo, po, 0 mg/kg, 3 h, tissue Plasma, route gavage, dose level Control
quantityMeasured: AST (IU/L)
Supply the numeric figure in IU/L, leaving out any unit text.

Example entries and their recorded answers appear below.
{"columns": ["compound", "unitSymbol", "AST"],
 "data": [
  ["CC(C)OC(=O)C(C)(C)Oc1ccc(C(=O)c2ccc(Cl)cc2)cc1 [FENOFIBRATE]", "IU/L", 83],
  ["CN(C)CCN(Cc1cccs1)c1ccccn1", "IU/L", 72.8],
  ["C[C@@H]1C[C@H]2[C@@H]3CCC4=CC(=O)C=C[C@]4(C)[C@@]3(F)[C@@H](O)C[C@]2(C)[C@@]1(O)C(=O)CO", "IU/L", 70.4],
  ["CN(C)CCCN1c2ccccc2CCc2ccc(Cl)cc21", "IU/L", 82.8],
  ["Cc1ccc(C)c(OCCCC(C)(C)C(=O)O)c1", "IU/L", 71.2]
]}

Which AST value belongs to "COc1cc2c(c(OC)c1OC)-c1ccc(OC)c(=O)cc1[C@@H](NC(C)=O)CC2" ?
65.6

Which AST value belongs to "NNC(=O)c1ccncc1" ?
66

Which AST value belongs to CCOC(=O)CCC(=O)O[C@H]1[C@H](O[C@@H]2[C@@H](C)[C@H](O[C@H]3C[C@@](C)(OC)[C@@H](O)[C@H](C)O3)[C@@H](C)C(=O)O[C@H](CC)[C@@](C)(O)[C@H](O)[C@@H](C)C(=O)[C@H](C)C[C@@]2(C)O)O[C@H](C)C[C@@H]1N(C)C [ERYTHROMYCIN ETHYLSUCCINATE] ?
76.6

Which AST value belongs to "CN1C(=O)CN=C(c2ccccc2)c2cc(Cl)ccc21" ?
66.6

Which AST value belongs to "CC/C(=C(\c1ccccc1)c1ccc(OCCN(C)C)cc1)c1ccccc1" ?
77.6
